Biological target: UniProt P32245
Sequence (P32245 whole entry): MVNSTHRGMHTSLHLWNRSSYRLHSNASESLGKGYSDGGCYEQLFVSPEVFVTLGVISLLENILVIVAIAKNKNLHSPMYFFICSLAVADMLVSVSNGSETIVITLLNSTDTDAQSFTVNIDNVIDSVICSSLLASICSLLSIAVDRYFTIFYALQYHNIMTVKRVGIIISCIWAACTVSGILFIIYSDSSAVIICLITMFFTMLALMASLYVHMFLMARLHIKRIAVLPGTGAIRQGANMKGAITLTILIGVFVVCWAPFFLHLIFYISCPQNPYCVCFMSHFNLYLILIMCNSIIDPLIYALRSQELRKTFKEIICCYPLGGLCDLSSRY
Assay: High and low density hMC4-R functional assay (cAMP, HEK293-T-REx-MC4-R cells)
Format: cell-based
Details: 10 ng/mL Doxycycline (high density hMC4-R system)
Observable: pEC50
To interpret pEC50, take it as minus log10 of a concentration measured in moles per litre.

>  <Chemical string>
CC(=O)N[C@@H](CCCNC(=N)N)C(=O)N[C@H]1CCC(=O)NCCC[C@@H](C(N)=O)NC(=O)[C@H](Cc2c[nH]c3ccccc23)NC(=O)[C@H](CCCNC(=N)N)NC(=O)[C@@H](Cc2ccc(C#N)cc2)NC(=O)[C@H](CO)NC1=O

>  <pEC50>
9.35

$$$$

Please look up its pEC50: CC(=O)N[C@@H](CCCNC(=N)N)C(=O)N[C@H]1CC(=O)NCCCC[C@@H](C(N)=O)NC(=O)[C@H](Cc2c[nH]c3ccccc23)NC(=O)[C@H](CCCNC(=N)N)NC(=O)[C@@H](Cc2ccc(F)cc2)NC(=O)[C@@H]2CCCN2C1=O
9.89

Please answer likewise for CC(=O)NCC[C@@H]1NC(=O)[C@@H](NC(=O)[C@H](CCCNC(=N)N)NC(C)=O)CCC(=O)NCCC[C@@H](C(N)=O)NC(=O)[C@H](Cc2c[nH]c3ccccc23)NC(=O)[C@H](CCCNC(=N)N)NC(=O)[C@@H](Cc2ccccc2Cl)NC1=O
9.52

====

Entries annotated with measured Ki
Target: MC1-R
Assay: Competitive inhibition binding assay using [I125]-NDP-α-MSH, MC1-R
Details: membranes of B-16 mouse melanoma cells (endogenous MC1-R), in some instances HEK-293 hMC1-R
Report only the number, with the unit nM understood.

>  <Chemical string>
CC(=O)N[C@@H](CCCNC(=N)N)C(=O)N[C@H]1CCC(=O)NCCC[C@@H](C(N)=O)NC(=O)[C@H](Cc2c[nH]c3ccccc23)NC(=O)[C@H](CCCNC(=N)N)NC(=O)[C@@H](Cc2ccc(C#N)cc2)NC(=O)[C@@H]2CCCN2C1=O

>  <System tested>
MC1-R

>  <Result unit>
nM

>  <Ki>
1550

$$$$

Turning to the following compound.
What reported Ki corresponds to CC(=O)N[C@@H](CCCNC(=N)N)C(=O)N[C@H]1CCCNC(=O)CC[C@@H](C(N)=O)NC(=O)[C@H](Cc2c[nH]c3ccccc23)NC(=O)[C@H](CCCNC(=N)N)NC(=O)[C@@H](Cc2ccccc2C)NC(=O)[C@H](CC(N)=O)NC1=O on MC1-R?
405

====

Target: MC1-R
Assay: Competitive inhibition binding assay using [I125]-NDP-α-MSH, MC1-R
Settings: membranes of B-16 mouse melanoma cells (endogenous MC1-R), in some instances HEK-293 hMC1-R
Protocol: 7.1 Competitive Inhibition Assay using [I^125]-NDP-α-MSH. A competitive inhibition binding assay was performed for exemplified peptides according to the invention using membrane homogenates prepared from HEK-293 cells that express recombinant hMC4-R, hMC3-R, or hMC5-R, and from B-16 mouse melanoma cells (containing endogenous MC1-R). In some instances, HEK-293 cells that express recombinant hMC1-R were employed. […] Filters were dried and counted in a gamma counter for bound radioactivity. […]
Label Fulfilled when Ki < 300 nM; otherwise Not fulfilled.

Example results:
>  <Chemical string>
CC(=O)N[C@@H](CCCNC(=N)N)C(=O)N[C@H]1CCC(=O)NCCC[C@@H](C(N)=O)NC(=O)[C@H](Cc2c[nH]c3ccccc23)NC(=O)[C@H](CCCNC(=N)N)NC(=O)[C@@H](Cc2cc(F)cc(F)c2)NC(=O)[C@H](CC(N)=O)NC1=O

>  <System tested>
MC1-R

>  <Assigned category>
Fulfilled

$$$$
>  <Chemical string>
CC(=O)N[C@@H](CCCNC(=N)N)C(=O)N[C@H]1CCC(=O)NCCC[C@@H](C(N)=O)NC(=O)[C@H](Cc2c[nH]c3ccccc23)NC(=O)[C@H](CCCNC(=N)N)NC(=O)[C@@H](Cc2ccccc2Cl)NC(=O)[C@H]([C@@H](C)O)NC1=O

>  <System tested>
MC1-R

>  <Assigned category>
Not fulfilled

$$$$
>  <Chemical string>
CC(=O)N[C@H](CCCNC(=N)N)C(=O)N[C@H]1CCCNC(=O)CC[C@@H](C(N)=O)NC(=O)[C@H](Cc2c[nH]c3ccccc23)NC(=O)[C@H](CCCNC(=N)N)NC(=O)[C@@H](Cc2ccc(F)cc2)NC(=O)[C@H](Cc2c[nH]cn2)NC1=O

>  <System tested>
MC1-R

>  <Assigned category>
Fulfilled

$$$$
>  <Chemical string>
CC(=O)N[C@@H](CCCNC(=N)N)C(=O)N[C@H]1CCC(=O)NCCC[C@@H](C(N)=O)NC(=O)[C@H](Cc2c[nH]c3ccccc23)NC(=O)[C@H](CCCNC(=N)N)NC(=O)[C@@H](Cc2ccc(C#N)cc2)NC(=O)[C@@H]2C[C@@H](O)CN2C1=O

>  <System tested>
MC1-R

>  <Assigned category>
Not fulfilled

$$$$
>  <Chemical string>
CC(=O)N[C@@H](CCCNC(=N)N)C(=O)N[C@H]1CCC(=O)NCCC[C@@H](C(N)=O)NC(=O)[C@H](Cc2c[nH]c3ccccc23)NC(=O)[C@H](CCCNC(=N)N)NC(=O)[C@@H](Cc2ccccc2C(F)(F)F)NC(=O)[C@H](CCC(N)=O)NC1=O

>  <System tested>
MC1-R

>  <Assigned category>
Fulfilled

$$$$

Answer whether the compound CC(=O)N[C@@H](CCCNC(=N)N)C(=O)N[C@H]1CCCNC(=O)CC[C@@H](C(N)=O)NC(=O)[C@H](Cc2c[nH]c3ccccc23)NC(=O)[C@H](CCCNC(=N)N)NC(=O)[C@@H](Cc2ccc(F)c(F)c2)NC(=O)[C@H](CC(N)=O)NC1=O has Ki strictly less than 300 nM
Fulfilled

Please answer likewise for CC(=O)N[C@@H](CCCNC(=N)N)C(=O)N[C@H]1CCC(=O)NCCC[C@@H](C(N)=O)NC(=O)[C@H](Cc2c[nH]c3ccccc23)NC(=O)[C@H](CCCNC(=N)N)NC(=O)[C@@H](Cc2ccc(F)cc2)NC(=O)[C@H](CO)NC1=O
Fulfilled

Please answer likewise for CC(=O)N[C@@H](CCCNC(=N)N)C(=O)N[C@H]1CCC(=O)NCCC[C@@H](C(N)=O)NC(=O)[C@H](Cc2c[nH]c3ccccc23)NC(=O)[C@H](CCCNC(=N)N)NC(=O)[C@@H](Cc2cccc(Cl)c2)NC(=O)[C@H](CCC(N)=O)NC1=O
Fulfilled
